Test system: P388
Protocol details: Percentage of the median survival time of P388 leukemic mice (T) at intraperitoneal administration of 1.6 mg/kg dose to that of controls (C)
Assay type: functional, Mus musculus
T/C values by entry

{"columns": ["Smiles record", "Tested on", "T/C, %"],
 "data": [
  ["COc1ccc(C[C@H]2C(=O)N[C@@H](C)C(=O)N(C)[C@H]3Cc4cccc(c4)Oc4cc(ccc4OC)C[C@@H](C(=O)N[C@H](C)C(=O)N[C@@H](C)C(=O)N2C)N(C)C3=O)cc1", "P388", 152],
  ["COc1ccc(C[C@H]2C(=O)N[C@@H](C)C(=O)N(C)[C@H]3Cc4cccc(c4)Oc4cc(ccc4OCCN4CCCC4)C[C@@H](C(=O)N[C@H](C)C(=O)N[C@@H](C)C(=O)N2C)N(C)C3=O)cc1", "P388", 124],
  ["COc1ccc(C[C@H]2C(=O)N[C@@H](C)C(=O)N(C)[C@H]3Cc4cccc(c4)Oc4cc(ccc4OCCN(C)C)C[C@@H](C(=O)N[C@H](C)C(=O)N[C@@H](C)C(=O)N2C)N(C)C3=O)cc1", "P388", 145],
  ["CCN(CCOc1ccc2cc1Oc1cccc(c1)C[C@H]1C(=O)N(C)[C@@H](C2)C(=O)N[C@H](C)C(=O)N[C@@H](C)C(=O)N(C)[C@@H](Cc2ccc(OC)cc2)C(=O)N[C@@H](C)C(=O)N1C)c1ccccc1", "P388", 133],
  ["CCN(CC)CCOc1ccc2cc1Oc1cccc(c1)C[C@H]1C(=O)N(C)[C@@H](C2)C(=O)N[C@H](C)C(=O)N[C@@H](C)C(=O)N(C)[C@@H](Cc2ccc(OC)cc2)C(=O)N[C@@H](C)C(=O)N1C", "P388", 124]
]}

----------
Tested on: P388
Protocol details: Percentage of the median survival time of P388 leukemic mice (T) at intraperitoneal administration of 1.6 mg/kg dose to that of controls (C)
Type: functional, Mus musculus
T/C values by entry
Quantity name: T/C

{"columns": ["Smiles record", "Readout value"],
 "data": [
  ["COc1ccc(C[C@H]2C(=O)N[C@@H](C)C(=O)N(C)[C@H]3Cc4cccc(c4)Oc4cc(ccc4OCCN4CCCCC4)C[C@@H](C(=O)N[C@H](C)C(=O)N[C@@H](C)C(=O)N2C)N(C)C3=O)cc1", "123%"],
  ["COc1ccc(C[C@H]2C(=O)N[C@@H](C)C(=O)N(C)[C@H]3Cc4cccc(c4)Oc4cc(ccc4OCCN(C(C)C)C(C)C)C[C@@H](C(=O)N[C@H](C)C(=O)N[C@@H](C)C(=O)N2C)N(C)C3=O)cc1", "157%"],
  ["COc1ccc(C[C@H]2C(=O)N[C@@H](C)C(=O)N(C)[C@H]3Cc4cccc(c4)Oc4cc(ccc4OCCN4CCCCCC4)C[C@@H](C(=O)N[C@H](C)C(=O)N[C@@H](C)C(=O)N2C)N(C)C3=O)cc1", "123%"]
]}

Origin of measurements: ChEMBL document CHEMBL1129817
